measurementDescription: Rat oral pharmacokinetic study of torcetrapib formulations
Type: in vivo
reportedConditions: male, Wistar-Han, plasma, rats, 10 mg/kg, mean n = 3
reportedProperty: Tmax
# number then unit; no other words

Briefly, Tmax measured for CCOC(=O)N1c2ccc(C(F)(F)F)cc2[C@@H](N(Cc2cc(C(F)(F)F)cc(C(F)(F)F)c2)C(=O)OC)C[C@H]1CC : 6 h

====

measurementDescription: Rat oral pharmacokinetic study of torcetrapib formulations
Format: in vivo
reportedConditions: male, Wistar-Han, plasma, rats, 10 mg/kg, mean n = 3, read-out: AUC(0-24)
reportedProperty: AUC(0-t)
In your response, put the unit directly after the numeric value.

Summary for this compound, CCOC(=O)N1c2ccc(C(F)(F)F)cc2[C@@H](N(Cc2cc(C(F)(F)F)cc(C(F)(F)F)c2)C(=O)OC)C[C@H]1CC : AUC(0-t) is 0.707 µM·h

Values were extracted from patent US11344496B2.
